System: P. aeruginosa
Assay: MIC, CLSI microdilution (Tables 1 and 6)
Assay type: cell-based
Details: Pseudomonas aeruginosa; PAO1; Table 1; read-out: MIC of Iron Chelators
Measured Quantity: MIC (µg/mL)
Numbers only, in µg/mL.

Cc1c(O)c(=O)ccn1C [ApoL1, 3-hydroxy-1,2-dimethyl-4(1H)-pyridone]: 250

Next, consider the following compound.
[Q] What value of MIC has been reported for the following compound? c1ccc(-c2ccccn2)nc1
[A] 250

====

System: clinical isolates of A. baumannii
Assay: MIC for clinical isolates in CAMHB media (Table 3)
Assay type: cell-based
Settings: Acinetobacter baumannii, AB4025, read-out: MIC of Iron Chelators
Experimental: Individual MICs were determined following the microdilution method recommended by CLSI in cationic-adjusted Mueller-Hinton Broth (CAMHB), or M9 media. […] Tests were performed in triplicate. MIC of iron chelators were determined for noscomial ESKAPE pathogens.
Hi there, I'd appreciate the recorded MIC for every entry that follows.
Give bare numbers, in µg/mL.

Solved cases (3 shown):
CNC(=O)c1c(O)c(=O)cc(C)n1C1CC1: 500
Cc1c(O)c(=O)ccn1C [ApoL1, 3-hydroxy-1,2-dimethyl-4(1H)-pyridone]: 250
OCCN1CCN(Cc2ccc(O)c3ncccc23)CC1: 250

Field: next compound
[Q] GET /values?readout=MIC&item= OCCN1CCN(CCc2ccc(O)c3ncccc23)CC1
[A] 500

====

Test system: clinical isolates of A. baumannii
Test: MIC for clinical isolates in RPMI (low iron) media (Table 4)
Assay type: cell-based
Settings: Acinetobacter baumannii, AB4026, read-out: MIC of Iron Chelators
Measured Quantity: MIC (µg/mL)
One number for each entry, in µg/mL.

Answered examples (3):
CNC(=O)c1c(O)c(=O)cc(C)n1C1CC1: 250
Cc1c(O)c(=O)ccn1C [ApoL1, 3-hydroxy-1,2-dimethyl-4(1H)-pyridone]: 125
OCCN1CCN(Cc2ccc(O)c3ncccc23)CC1: 8

[Q] For OCCN1CCN(CCc2ccc(O)c3ncccc23)CC1 , what is its reported MIC?
[A] 32

====

Tested on: K. pneumonia
Assay: MIC, CLSI microdilution (Tables 1 and 6)
Assay type: cell-based
Settings: Klebsiella pneumoniae, BAA2146; BAA-2146; Table 1; read-out: MIC of Iron Chelators
Method: The minimal inhibitory concentration (MIC) of non-toxic iron chelators was determined against standard strains of MDR bacteria and clinical isolates according to the guidelines of the Clinical and Laboratory Standards Institute (CLSI). Individual MICs were determined following the microdilution method recommended by CLSI in cationic-adjusted Mueller-Hinton Broth (CAMHB), or M9 media. […] Tests were performed in triplicate. MIC of iron chelators were determined for noscomial ESKAPE pathogens. […]
Field: MIC. Provide a value for each of the compounds that follow.
Give bare numbers, in µg/mL.

c1ccc(-c2ccccn2)nc1: 250

[Q] // query MIC value for entry Cc1c(O)c(=O)ccn1C [ApoL1, 3-hydroxy-1,2-dimethyl-4(1H)-pyridone]
[A] 250

====

System: clinical isolates of A. baumannii
Assay: MIC for clinical isolates in CAMHB media (Table 3)
Type: cell-based
Settings: Acinetobacter baumannii, AB5256, read-out: MIC of Iron Chelators
Protocol: Individual MICs were determined following the microdilution method recommended by CLSI in cationic-adjusted Mueller-Hinton Broth (CAMHB), or M9 media. […] Tests were performed in triplicate. MIC of iron chelators were determined for noscomial ESKAPE pathogens.
Measured Quantity: MIC (µg/mL)
One number for each entry, in µg/mL.

Cc1c(O)c(=O)ccn1C [ApoL1, 3-hydroxy-1,2-dimethyl-4(1H)-pyridone]: 250
OCCN1CCN(CCc2ccc(O)c3ncccc23)CC1 [Compound 4]: 500
CNC(=O)c1c(O)c(=O)cc(C)n1C1CC1 [Apo6619]: 250

With those in mind, consider the next compound.
[Q] # get_value(readout='MIC', item= OCCN1CCN(Cc2ccc(O)c3ncccc23)CC1 [VK28] )
[A] 250

====

Can you tell me MIC for the items I'm about to list?
Test system: Acinetobacter baumannii
Test: MIC in RPMI1640 media (Table 2)
Format: cell-based
Settings: ATCC19606, ATCC 19606, read-out: MIC of Iron Chelators

OCCN1CCN(Cc2ccc(O)c3ncccc23)CC1: 8 µg/mL
CC(=O)N(O)CCCCCNC(=O)CCC(=O)N(O)CCCCCNC(=O)CCC(=O)N(O)CCCCCN: > 500 µg/mL
c1ccc(-c2ccccn2)nc1: 32 µg/mL
CNC(=O)c1c(O)c(=O)cc(C)n1C1CC1: 125 µg/mL

[Q] Could you share what MIC was measured for Cc1c(O)c(=O)ccn1C [ApoL1, 3-hydroxy-1,2-dimethyl-4(1H)-pyridone] , tested on Acinetobacter baumannii?
[A] 125 µg/mL

====

Test system: Acinetobacter baumannii
Test: MIC, CLSI microdilution (Tables 1 and 6)
Format: cell-based
Details: ATCC19606, ATCC 19606, Table 1, read-out: MIC of Iron Chelators
Measured Quantity: MIC (µg/mL)
One number for each entry, in µg/mL.

Report MIC for each item below.
1. CNC(=O)c1c(O)c(=O)cc(C)n1C1CC1
2. Cc1c(O)c(=O)ccn1C [ApoL1, 3-hydroxy-1,2-dimethyl-4(1H)-pyridone]
3. OCCN1CCN(Cc2ccc(O)c3ncccc23)CC1
4. c1ccc(-c2ccccn2)nc1

[A]
250
125
125
64

====

System: clinical isolates of A. baumannii
Experiment: MIC for clinical isolates in CAMHB media (Table 3)
Type: cell-based
Details: Acinetobacter baumannii, AB4795, read-out: MIC of Iron Chelators
Measured Quantity: MIC (µg/mL)
Give bare numbers, in µg/mL.

Some compounds with known MIC results, for comparison:
CNC(=O)c1c(O)c(=O)cc(C)n1C1CC1: 500
Cc1c(O)c(=O)ccn1C [ApoL1, 3-hydroxy-1,2-dimethyl-4(1H)-pyridone]: 250
OCCN1CCN(Cc2ccc(O)c3ncccc23)CC1: 250

Lab note: next compound to report on.
[Q] I am curious: what MIC value has been reported for OCCN1CCN(CCc2ccc(O)c3ncccc23)CC1 ?
[A] 500

====

Answer each item with its documented MIC.
System: clinical isolates of A. baumannii
Assay: MIC for clinical isolates in RPMI (low iron) media (Table 4)
Format: cell-based
Details: Acinetobacter baumannii, AB3806, read-out: MIC of Iron Chelators
Numbers only, in µg/mL.

Reference set (3 entries):
Cc1c(O)c(=O)ccn1C [ApoL1, 3-hydroxy-1,2-dimethyl-4(1H)-pyridone]: 125
OCCN1CCN(Cc2ccc(O)c3ncccc23)CC1: 8
CNC(=O)c1c(O)c(=O)cc(C)n1C1CC1: 250

From here, focus on the item given below.
[Q] // fetch clinical isolates of A. baumannii MIC for OCCN1CCN(CCc2ccc(O)c3ncccc23)CC1
[A] 32

====

Tested on: clinical isolates of A. baumannii
Test: MIC for clinical isolates in CAMHB media (Table 3)
Type: cell-based
Conditions: Acinetobacter baumannii, AB5075, read-out: MIC of Iron Chelators
Measured Quantity: MIC (µg/mL)
Numbers only, in µg/mL.

# map each compound to its MIC
1. CNC(=O)c1c(O)c(=O)cc(C)n1C1CC1
2. Cc1c(O)c(=O)ccn1C [ApoL1, 3-hydroxy-1,2-dimethyl-4(1H)-pyridone]
3. OCCN1CCN(Cc2ccc(O)c3ncccc23)CC1
4. OCCN1CCN(CCc2ccc(O)c3ncccc23)CC1

[A]
250
250
250
500

====

Test system: P. aeruginosa
Assay: MIC, CLSI microdilution (Tables 1 and 6)
Assay type: cell-based
Details: Pseudomonas aeruginosa; PAO1; Table 1; read-out: MIC of Iron Chelators
Measured Quantity: MIC

Completed entries (count: 2):
CNC(=O)c1c(O)c(=O)cc(C)n1C1CC1: > 500 µg/mL
OCCN1CCN(Cc2ccc(O)c3ncccc23)CC1: > 500 µg/mL

Next:
[Q] Tell me the measured MIC of CC(=O)N(O)CCCCCNC(=O)CCC(=O)N(O)CCCCCNC(=O)CCC(=O)N(O)CCCCCN , please.
[A] > 500 µg/mL

====

What MIC was measured for each of the following?
System: K. pneumonia
Test: MIC, CLSI microdilution (Tables 1 and 6)
Assay type: cell-based
Settings: Klebsiella pneumoniae, BAA2146; BAA-2146; Table 1; read-out: MIC of Iron Chelators

Solved cases below.
OCCN1CCN(Cc2ccc(O)c3ncccc23)CC1 [VK28]: > 500 µg/mL
CNC(=O)c1c(O)c(=O)cc(C)n1C1CC1 [Apo6619]: > 500 µg/mL

Here is the next item to consider.
[Q] Data request, read-out MIC, for CC(=O)N(O)CCCCCNC(=O)CCC(=O)N(O)CCCCCNC(=O)CCC(=O)N(O)CCCCCN [DFO, deferoxamine]
[A] > 500 µg/mL
